conditions: in n-propanol, 303.15 K
Readout Name: solubility (mole fraction)

N#Cc1cccc([N+](=O)[O-])c1C#N 0.00189

* * *

conditions: in NMP, 293.15 K
Readout Name: solubility (mole fraction)

N#Cc1cccc([N+](=O)[O-])c1C#N 0.115

* * *

conditions: in isopropanol, 318.15 K
Readout Name: solubility (mole fraction)

N#Cc1cccc([N+](=O)[O-])c1C#N 0.00257

* * *

settings: in ethyl acetate, 313.15 K
Readout Name: solubility (mole fraction)

N#Cc1cccc([N+](=O)[O-])c1C#N 0.0487

* * *

conditions: in water, 283.15 K
Readout Name: solubility (mole fraction)

N#Cc1cccc([N+](=O)[O-])c1C#N 6.38e-05

* * *

details: in ethanol, 308.15 K
Readout Name: solubility (mole fraction)

N#Cc1cccc([N+](=O)[O-])c1C#N 0.00273

* * *

conditions: in ethanol, 323.15 K
Readout Name: solubility (mole fraction)

N#Cc1cccc([N+](=O)[O-])c1C#N 0.00448

Numbers sourced from BigSolDB 2.1.
